Below, each entry is listed alongside its reported melting point.
MEASURED ENDPOINT: melting point

INSERT INTO results (molecule, meas_value) VALUES
  ('COc1ccc(C[C@H](N)C(=O)O)cc1', '259 to 261 °C'),
  ('Clc1nc(Br)[nH]c1Cl', '215 to 216 °C'),
  ('Nc1nc(SCc2ccc([N+](=O)[O-])cc2)c2ncn(C3OC(CO)C(O)C3O)c2n1 (stereo not drawn)', '203 to 205 °C');

---

Binarize melting point at 70 °C; below is met, at or above is not met.

INSERT INTO measurements (compound, qualitative_label) VALUES
  ('CCOc1ccc2ccccc2c1C(=O)O', 'not met'),
  ('Cc1ccncc1[N+](=O)[O-]', 'met'),
  ('C=C(C)C=C(C)C', 'met'),
  ('O=C(O)c1cc(Cl)ccc1Br', 'not met'),
  ('Cc1ccncc1C=NNc1ccc([N+](=O)[O-])cc1[N+](=O)[O-]', 'not met'),
  ('Nc1nc(S)nc2[nH]ncc12', 'not met'),
  ('O=C(O)c1ccccc1OC(F)(F)F', 'not met'),
  ('CCCCCCCCCCCCCCCCCC[Si](C)(C)Cl', 'met'),
  ('COP(=S)(OC)Oc1nc(Cl)c(Cl)cc1Cl', 'met'),
  ('CC(CC(C(N)=O)(c1ccccc1)c1ccccc1)N(C)C (centres undefined)', 'not met'),
  ('C=CCCCCCCCCCCCCCCCCCCCC', 'met'),
  ('C=CCNC(=O)NCC=C', 'not met'),
  ('CCOc1ccc(-c2nnc3sc(-c4ccc(Cl)cc4)nn23)cc1', 'not met'),
  ('CCc1c(O)c(=O)ccn1N1CCOCC1', 'not met'),
  ('O=C1OC2(c3cc(Cl)c(O)cc3Oc3cc(O)c(Cl)cc32)c2ccccc21', 'not met'),
  ('Cc1cc(C)c2c(c1)CC2(C)O (centres undefined)', 'met'),
  ('ClCc1nc(-c2ccccc2)no1', 'met'),
  ('Cc1cc(C)c2c(=O)n3ccccc3cc2c1', 'not met'),
  ('CC(Br)C(=O)O (centres undefined)', 'met'),
  ('CCOC(=O)C(O)C(O)C(=O)OCC (centres undefined)', 'met'),
  ('COc1ccc(C)c(C(=O)O)c1', 'not met'),
  ('CCNC(=O)Nc1ncc([N+](=O)[O-])s1', 'not met');

---

MEASURED ENDPOINT: melting point (°C)

INSERT INTO assay_data (molecule, op, meas_value) VALUES
  ('Nc1ccc(Cl)cc1N', '=', 76),
  ('CN(C)c1ccc(C(Br)=NNc2ccc([N+](=O)[O-])cc2)cc1', '=', 188),
  ('Cc1ccc2c(c1)C(c1ccccc1)C(c1ccccc1)N2 (stereo unspecified)', '=', 155),
  ('CCOP(=S)(OCC)Oc1nc(Cl)n(C(C)C)n1', '<', 25),
  ('COc1c(C)c(C)c(OC)c(Br)c1C', '=', 72),
  ('CCCCOC(=O)CC', '=', -75),
  ('CC(=O)C1(O)CCC2C3CC(C)C4=CC(=O)C=CC4(C)C3(F)C(O)CC21C (stereo unspecified)', '=', 297),
  ('CC(=O)Oc1ccc(OC(C)=O)c2ccccc12', '=', 124),
  ('NS(=O)(=O)c1cc(Cl)c(Cl)c(S(N)(=O)=O)c1', '=', 229),
  ('O=[N+]([O-])c1ccc(S(=O)(=O)Cl)cc1Cl', '=', 38),
  ('O=C1NN(c2ccccc2)C(=O)C1(Br)Br', '=', 119),
  ('O=C(Cc1ccccc1)C(=O)C(Br)c1ccccc1 (stereo unspecified)', '=', 73),
  ('BrCCI', '=', 28),
  ('BrCc1ccc2nsnc2c1', '=', 91),
  ('Cc1cc(C)c2cc(C)ccc2c1', '=', 12),
  ('N#Cc1c(Cl)c(Cl)c(Cl)c(C#N)c1Cl', '=', 252),
  ('CC(C)(C)C(=O)CS(=O)(=O)c1ccc(Cl)cc1', '=', 97),
  ('Cc1c(Cl)ccc(OC(C)C(=O)Nc2ccccc2)c1Cl (stereo unspecified)', '=', 146),
  ('CC(C)(C)OC(=O)NC1(C(=O)O)CCCC1', '=', 133),
  ('CC12CCC3=C(CC[C@]4(C)C(=O)CC[C@@H]34)[C@H]1CCC(=O)C2 (stereo partly specified)', '=', 149),
  ('Cc1ccc(N2C(=O)C3ON=C(C(=O)c4cccs4)C3C2=O)cc1 (stereo unspecified)', '=', 160),
  ('COc1ccccc1OC', '=', 22.5),
  ('NC(=O)c1cc(Cl)cc(Cl)c1N', '=', 162),
  ('Oc1ccnc2cc(Cl)ccc12', '=', 280),
  ('CCCCCCOc1ccc(N)cc1', '=', 44),
  ('Brc1cccs1', '=', -10),
  ('Cc1ccc(C)c([N+](=O)[O-])c1', '=', -25),
  ('CCCCCCCCCCSCCCCCCCCCC', '=', 27),
  ('Ic1ccc(-n2cccc2)cc1', '=', 131);

---

Below, each entry is listed alongside its reported melting point.
MEASURED ENDPOINT: melting point

INSERT INTO assay_data (compound, meas_value) VALUES
  ('CC1NC(C(=O)O)C(C)(C)S1 (mixture of isomers)', '166 to 168 °C'),
  ('CSc1ncc(Br)c(C(=O)O)n1', '156 to 157 °C'),
  ('FC(F)(F)C(F)(F)C(F)(F)C(F)(F)C(F)(F)C(F)(F)C(F)(F)C(F)(F)Br', '< 25 °C'),
  ('Cc1oc(-c2ccccc2)nc1C(=O)O', '182 to 183 °C'),
  ('N#Cc1ccc(N2CCCNCC2)nc1', '63 to 65 °C');

---

Binarize melting point at 200 °C; below is Met, at or above is Not met.

INSERT INTO assay_data (compound, qualitative_label) VALUES
  ('NCc1ccc(C(=O)O)cc1', 'Not met'),
  ('Nc1c(CN2CCOCC2)c(=O)oc2ccccc12', 'Met'),
  ('C=Cc1cccc(C=C)c1', 'Met'),
  ('CC(=O)c1cnccn1', 'Met'),
  ('CCCCCCCCCCCCN(CCCCCCCCCCCC)CCCCCCCCCCCC', 'Met'),
  ('OC[C@H]1O[C@@H](Oc2ccccc2)[C@H](O)[C@@H](O)[C@@H]1O', 'Met'),
  ('CCCCC(=O)N(Cc1ccc(-c2ccccc2-c2nnn[nH]2)cc1)C(C(=O)O)C(C)C (configuration not stated)', 'Met'),
  ('CN(CC(=O)O)C(=O)COC(=O)c1ccccc1', 'Met'),
  ('Clc1cc2c(oc3c(Cl)c(Cl)c(Cl)cc32)c(Cl)c1Cl', 'Not met'),
  ('O=C(O)/C(=C/c1ccc([N+](=O)[O-])cc1)c1ccccc1C(=O)O', 'Not met'),
  ('C/C=C/Br', 'Met'),
  ('CC(=O)C(=NNc1cccc([N+](=O)[O-])c1)C(C)=O', 'Met'),
  ('N#CC(=CNc1ccccc1)c1ccccc1', 'Met'),
  ('c1ccc2c(c1)ccc1nc3c(ccc4ccccc43)cc12', 'Not met'),
  ('CC(=O)N1C(C(=O)O)Cc2c([nH]c3ccccc23)C1(C)C (configuration not stated)', 'Met'),
  ('CC1=C(C)C2(C)C(C)=C(C)C12C (configuration not stated)', 'Met'),
  ('CC(c1ccccc1)C(C(=O)O)c1ccccc1 (configuration not stated)', 'Met'),
  ('C#CC1(O)CCC2(C)C(C1)CC1(OCCO1)C1C3CCC(=O)C3(C)CCC12 (configuration not stated)', 'Not met'),
  ('COC(=O)c1ccc(C)c([N+](=O)[O-])c1', 'Met'),
  ('CCSc1nnc(C(C)(C)C)c(=O)n1N', 'Met'),
  ('CN[C@@H](Cc1c[nH]c2ccccc12)C(=O)O', 'Not met'),
  ('Cc1ccc(C(C)CC(=O)C=Cc2ccccc2)cc1 (configuration not stated)', 'Met');

---

Below, each entry is listed alongside its reported melting point.
MEASURED ENDPOINT: melting point

INSERT INTO measurements (molecule, meas_value) VALUES
  ('CC(C)[C@@H](NC(=O)OC(C)(C)C)C(=O)O', '164 to 165 °C'),
  ('COC(=O)c1cc2cc(Br)ccc2s1', '110 to 111 °C'),
  ('Cc1ccc(C(=O)c2cc3c(cc2Br)OCCO3)cc1', '110 to 112 °C'),
  ('COC(=O)c1scc(Br)c1O', '80 °C'),
  ('CCC1CC(OC(=O)c2ccc([N+](=O)[O-])cc2)CC(C)(C)N1O (stereo unspecified)', '145 to 147 °C'),
  ('Cn1cc(Br)c(CO)n1', '94 to 95 °C');
